These data points were gathered from the supplement of paper PMC11908140.

Recorded measurements of 8OG:A repair function score, one per entry
B1: library; numbered along this chain (parent)
chain: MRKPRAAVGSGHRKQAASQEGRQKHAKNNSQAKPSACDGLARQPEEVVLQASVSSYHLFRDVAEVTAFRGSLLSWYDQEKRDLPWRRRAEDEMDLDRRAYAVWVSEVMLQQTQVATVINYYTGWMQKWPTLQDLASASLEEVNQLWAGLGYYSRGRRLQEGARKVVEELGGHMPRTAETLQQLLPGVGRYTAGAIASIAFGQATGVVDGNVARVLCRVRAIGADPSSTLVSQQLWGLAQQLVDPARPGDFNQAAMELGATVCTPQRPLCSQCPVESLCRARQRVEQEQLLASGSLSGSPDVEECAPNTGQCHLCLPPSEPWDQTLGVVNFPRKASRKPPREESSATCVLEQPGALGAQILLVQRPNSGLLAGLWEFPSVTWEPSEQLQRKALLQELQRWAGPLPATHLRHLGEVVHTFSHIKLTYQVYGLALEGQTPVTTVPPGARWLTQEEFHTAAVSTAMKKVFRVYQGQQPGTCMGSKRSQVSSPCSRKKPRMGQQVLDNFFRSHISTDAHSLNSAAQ

variants of: B1; test: 8OG:A repair function score (normalized; synonymous = 0, nonsense = -1) (normalized log-likelihood score); higher = more repair activity (WT-like); settings: with 8OG:A DNA repair reporter (GFP) in HEK-293 MUTYH KO cells;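 note: cells sorted at 72 h after reporter transfection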
test.readout: 8OG:A repair function score

- mutations: "A280Y"
  value: -0.51
- mutations: "R332P"
  value: -0.191
- mutations: "A520E"
  value: 0.0123
- mutations: "K422Q"
  value: 0.195
- mutations: "A203E"
  value: -0.0816
- mutations: "A115T"
  value: -0.106
- mutations: "V441T"
  value: -0.0387
- mutations: "L131S"
  value: -0.315
- mutations: "F466A"
  value: -0.4
- mutations: "L257I"
  value: -0.176
- mutations: "S367K"
  value: 0.111
- mutations: "V48Q"
  value: 0.0497
- mutations: "K164N"
  value: -0.37
- mutations: "S487G"
  value: -0.00491
- mutations: "G39Y"
  value: -0.0346
- mutations: "W103T"
  value: -0.833
- mutations: "G401A"
  value: -0.317
- mutations: "T440D"
  value: -0.0869
- mutations: "P247L"
  value: -1.02
- mutations: "H57Q"
  value: -0.657
- mutations: "T436I"
  value: -0.0834
- mutations: "Q271S"
  value: -0.0229
- mutations: "T308G"
  value: -0.0427
- mutations: "E45K"
  value: -0.0451
- mutations: "L58V"
  value: -0.00997
- mutations: "R446V"
  value: -0.116
- mutations: "S419A"
  value: -0.188
- mutations: "V414A"
  value: -0.157
- mutations: "Y76N"
  value: -1.1
- mutations: "S510H"
  value: 0.0212
- mutations: "S52F"
  value: -0.0245
- mutations: "S419M"
  value: -0.561
- mutations: "C304H"
  value: -0.403
- mutations: "E92D"
  value: -0.0315
- mutations: "P331V"
  value: -0.568
- mutations: "L40M"
  value: 0.227
- mutations: "C311K"
  value: -0.39
- mutations: "G297F"
  value: 0.016
- mutations: "A115S"
  value: -0.0518
- mutations: "K80E"
  value: -0.31
- mutations: "G248P"
  value: -0.995
- mutations: "K463T"
  value: -0.141
- mutations: "K422C"
  value: -0.221
- mutations: "Q351S"
  value: -0.0771
- mutations: "F505R"
  value: 0.016
- mutations: "E350Y"
  value: -0.185
- mutations: "Y121M"
  value: -0.933
- mutations: "L95K"
  value: -0.0064
- mutations: "Y121E"
  value: -1.92
- mutations: "V230C"
  value: -0.229
- mutations: "A36D"
  value: -0.0511
- mutations: "P437Y"
  value: -0.351
- mutations: "E342H"
  value: 0.0491
- mutations: "Q132A"
  value: 0.059
- mutations: "W124M"
  value: -1.62
- mutations: "V107E"
  value: -0.669
- mutations: "K481A"
  value: -0.00494
- mutations: "P174G"
  value: -0.814
- mutations: "Q473H"
  value: 0.0203
- mutations: "L183T"
  value: -0.0372
- mutations: "Q435C"
  value: 0.293
- mutations: "A461E"
  value: -0.842
- mutations: "A431G"
  value: -0.211
- mutations: "G372Q"
  value: -0.291
- mutations: "C269T"
  value: -1.06
- mutations: "R266L"
  value: -0.152
- mutations: "I421C"
  value: -0.3
- mutations: "G475H"
  value: -0.0609
- mutations: "V328E"
  value: -0.157
